experiment: in vitro; conditions: human, hela cells, % viability
Hi there, I'd appreciate the recorded viability at 28.5 h, 10 µM for every entry that follows.
Numbers only, in %.

O=C1C2(c3ccccc3)CN3CN(C2)CC1(c1ccccc1)C3	93.5

For every record below, what is its viability at 28.5 h, 10 µM?
1. Cc1cc(NC(=O)CCCN2C(=O)c3cccc4cccc(c34)C2=O)n(-c2ccccc2)n1
2. CN(C)CCCn1c(=O)[nH]c2sc3c(c2c1=N)CC(C)(C)OC3

Result:
1: 109; 2: 107

----------
Hi there, I'd appreciate the recorded viability at 28.5 h, 10 µM for every entry that follows.
experiment: in vitro; conditions: human, hela cells, % viability
Give bare numbers, in %.

Please review the following examples before continuing.
CCN(CC)C(=O)c1ccc(NS(=O)(=O)Cc2ccccc2[N+](=O)[O-])cc1	97.1
CC(C)NCC(O)COC1CCC(C(C)(C)C)CC1 (stereo not shown) [CBK029007C]	89.2
Cc1cc(C)nc(NC(=N)NCc2ccccc2)n1	94.2
Cc1nnc(CNC(=O)c2cc(-c3ccc(Cl)cc3)nc3ccccc23)o1	109
Cc1cc(-c2ccc(=O)n(C3CCN(C(=O)C4CC4)CC3)n2)c(C)o1	87.2
O=C(NCc1ccc([N+](=O)[O-])cc1)c1cccnc1NCc1ccc2c(c1)OCO2	98.6
Cc1ccc2n1CCN(C(=O)c1cccc(-n3cnnc3)c1)C2C(C)C (stereo not shown)	105
CC(C)S(=O)(=O)N1C2CCC(C2)[C@@H]1COc1ccc(F)cc1 (stereo partly shown)	101
O=c1cc(CO)oc(CN2CCCCCC2)c1O	97.7
COc1ccc(N2CCN(Cc3nc4c(c(=O)n(C)c(=O)n4C)n3CC(C)=O)CC2)cc1	103

For every record below, what is its viability at 28.5 h, 10 µM?
1. CCOC(=O)c1cnc2nc3ccccc3n2c1C
2. CC(=O)N[C@H](C(=O)N1CC[C@@H]2NC(=O)[C@@H](Cc3ccccc3)NC(=O)C3(C/C=C/C[C@@H]2C1)CCOCC3)[C@@H](C)O
3. Cc1ccc(C(=O)N2CCC(C(=O)NC(c3ccccc3)c3ccsc3)CC2)cc1 (stereo not shown)
4. CSc1nc(NC(=O)C(C)c2ccccc2)cc(N2CCNCC2)n1 (stereo not shown) [CBK026742T]

Result:
[95.4, 96.9, 109, 91.2]

For every record below, what is its viability at 28.5 h, 10 µM?
1. CCc1ncc(C(=O)N(Cc2ccccn2)CC2CCCO2)cn1 (stereo not shown)
2. CN(C)C(CNS(=O)(=O)c1cc2c(cc1Br)NC(=O)CO2)c1ccc(F)cc1 (stereo not shown)

Result:
1. 95.1
2. 105

----------
experiment: in vitro; details: human, hela cells, % viability
Hi there, I'd appreciate the recorded viability at 28.5 h, 10 µM for every entry that follows.
Answers are plain numbers, in %.

COc1ccc(-c2cn3cccnc3n2)cc1NC(=O)c1ccccc1	73.8
O=C(CN1CCCC1Cn1cncn1)NCCc1ccsc1 (stereo not drawn)	85.2
CC(=O)Nc1ccccc1-c1nc2ccccc2o1	100
Cc1noc(C)c1C(=O)N1CC[C@H]2NC(=O)c3ccccc3OCC/C=C/C[C@H]2C1	100

For every record below, what is its viability at 28.5 h, 10 µM?
1. CC(C)(CO)Cn1c(=O)[nH]c2ncc(-c3ccc(F)c(Cl)c3)nc21
2. CCCSc1cc(=O)oc2ccccc12
3. Cc1cc(CN(C)C(=O)c2cc3sccc3[nH]2)no1
4. O=S(=O)(Cc1cc(Cl)ccc1F)N1CCN(CCO)CC1
5. O=C1OCCN1S(=O)(=O)c1ccc(CN2CCN(Cc3ccc(S(=O)(=O)N4CCOC4=O)cc3)CC2)cc1
6. Cc1ccc(NC(=O)COc2ccccc2)c(NC(=O)c2ccco2)c1
7. O=C(CCS(=O)(=O)c1ccccc1)N(Cc1cccnc1)c1nc2c(F)cccc2s1
8. O=C(COC(=O)c1ccccc1NC(=O)c1ccccc1)c1ccc2ccccc2c1

Result:
1: 102; 2: 87.3; 3: 82.7; 4: 80; 5: 91.4; 6: 95.6; 7: 81.5; 8: 94.9

For every record below, what is its viability at 28.5 h, 10 µM?
1. C[C@H](c1ccccc1)n1c(=O)[nH]c2ncc(-c3ccco3)nc21
2. CCC(=O)Nc1nonc1-c1nc2ccccc2n1Cc1ccc(F)cc1Cl
3. O=C(c1cc(F)cc(F)c1)N1CCC(O)(c2cccnc2F)CC1
4. O=C(c1cc(C2CC2)on1)N1CCn2cc(C(F)(F)F)nc2C1
5. CC(NS(=O)(=O)c1cccc2c(S(=O)(=O)NC(C)c3ccccc3)cccc12)c1ccccc1 (stereo not drawn)

Result:
1. 98.1
2. 84.1
3. 92.7
4. 85.4
5. 83.6

For every record below, what is its viability at 28.5 h, 10 µM?
1. O=C(NCc1cccs1)C1(Cc2ccc(-c3ccc(F)c(F)c3)cc2)CCOCC1
2. CCN(CC)CC(O)Cn1c(-c2ccccc2Cl)nc2ccccc21 (stereo not drawn)
3. CCC(CN(C(=O)C(N)CCCCN)c1ccc2c(c1)OCO2)c1ccccc1 (stereo not drawn) [CBK001083T]
4. CCC(O)CNC(=O)c1coc(COc2ccc3sc(C)nc3c2)n1 (stereo not drawn)

Result:
99.5
96.3
96.4
90.8

For every record below, what is its viability at 28.5 h, 10 µM?
1. Nc1ccc2cc(-c3ccsc3)cnc2n1
2. Oc1ccc(-n2ncc(-c3ccc(F)cc3F)n2)cc1
3. Cc1nn2c(COc3ccc(NC(=O)C4CCCCC4)cc3)nnc2c2ccccc12
4. CC(=O)c1ccc(-c2nc(NC(=O)CC#N)cnc2-c2ccc(F)c(Cl)c2)s1

Result:
1. 101
2. 98
3. 104
4. 108

For every record below, what is its viability at 28.5 h, 10 µM?
1. O=C(Nc1cccc(N2CCNCC2)c1)c1ccccc1 [CBK028255T]
2. Cc1c(C(=O)N2CCC(c3cc4ncccc4[nH]3)CC2)cnn1C

Result:
[114, 88.1]

----------
assay: in vitro; conditions: human, hela cells, % viability
Hi there, I'd appreciate the recorded viability at 28.5 h, 10 µM for every entry that follows.
Answers are plain numbers, in %.

CC(=O)Nc1ccc(Nc2ncnc3c2cnn3-c2ccc(C)cc2C)cc1 [CBK265803]	116
Cc1ccc(N(CC(O)CN2CCCC2)S(=O)(=O)c2ccccc2)cc1 (stereo not shown) [CBK264739]	101
Cc1cccc(C)c1NC(=O)CN1CCCN(c2nccc(OCC3COc4ccccc4O3)n2)CC1 (stereo not shown) [CBK083974]	102
O=C1CCCN1CCCNc1nccnc1-c1ccncc1 [CBK036832]	106
Cn1ncc2ccc(-c3nnn[nH]3)cc21 [CBK304776]	93
CN1CCN(C(=O)CCn2c(C(F)(F)F)cc3cccnc32)CC1 [CBK284896]	93.7
Cc1cc(C)c(NC(=O)CSc2nc(C)c(Cc3ccccc3Cl)c(O)n2)c([N+](=O)[O-])c1 [CBK268693]	90.4
C[C@H]1[C@@H]2[C@@H](O)C([C@H](C)C(=O)NC3CC3)CC[C@@]2(C)CC[C@@H]1NC(=O)C1CC1 (stereo partly shown) [CBK289442]	87.1
Cc1cccc(-n2c(N)cc(=O)nc2SC(C)C(=O)Nc2ccc(S(N)(=O)=O)cc2)c1 (stereo not shown) [CBK266173]	99.7
Cc1nnc(N/N=C/c2cn(Cc3c(F)cccc3Cl)c3ccccc23)n1N [CBK278277C]	86.8

For every record below, what is its viability at 28.5 h, 10 µM?
1. CN(C)CCN1CCN(c2ccc(-c3ccc(OC(F)(F)F)cc3)cn2)CC1 [CBK036796]
2. COCCNC(=O)N1CCN(c2ccccc2)CC1 [CBK155181]
3. O=C1CC(C(=O)N2CCc3ncc(Cl)cc3C2)c2ccccc2N1 (stereo not shown) [CBK284976]
4. CC(=O)N1CCc2cc(C(=O)CN3CCC(c4ccccc4)C3)ccc21 (stereo not shown) [CBK282931]
5. O=S(=O)(Nc1nc2ccccc2nc1Nc1ccccc1)c1ccccc1 [CBK260953]
6. Nc1nc(OCCN2CCOCC2)cnc1-c1cc(Cl)cc(Cl)c1 [CBK145198]
7. Cc1ccc(/C=C/C(=O)O)cc1S(=O)(=O)NC1CCS(=O)(=O)C1 (stereo not shown) [CBK264409]
8. CCOC(=O)C(C)N1C(=O)S/C(=C/c2ccc(Oc3ccc([N+](=O)[O-])cn3)cc2)C1=O (stereo not shown) [CBK265114]

Result:
1: 94.7; 2: 96.1; 3: 94.4; 4: 98; 5: 94.5; 6: 99.8; 7: 96.1; 8: 93.9

For every record below, what is its viability at 28.5 h, 10 µM?
1. Cc1ccc(S(=O)(=O)N(CC(=O)Nc2cccnc2)c2cccc([N+](=O)[O-])c2)cc1 [CBK266404]
2. CC1(CCc2ccccc2)NC(=O)N(CC(=O)c2ccc(-c3ccccc3)cc2)C1=O (stereo not shown) [CBK297114]
3. CCCC1(OC(=O)Nc2ccc(Cl)cc2)CCCCC1 [CBK026295]
4. C[N+]1([O-])CCN(c2nccn(CCOc3cc(F)c(F)cc3F)c2=O)CC1 [CBK081593]
5. N=C(N)SCC1CNC(=N)S1 (stereo not shown) [CBK260991]
6. CCn1c(SCC(=O)NC(=O)NC2CCCCC2)nc2ccccc21 [CBK306037]

Result:
[86, 107, 91.4, 101, 99.3, 93.6]

For every record below, what is its viability at 28.5 h, 10 µM?
1. O=C(Nc1ccccc1)OC1CCCCC1 [CBK015569]
2. COc1ccc(CC(=O)Nc2cccc(-c3cn4ccc(C)cc4n3)c2)cc1OC [CBK269148]
3. CS(=O)(=O)N1CCCc2cc(-c3csc(N4CCOCC4)n3)ccc21 [CBK305022]
4. CCCc1ccc(N(C)C(=O)c2ccc(OCC)cc2)cc1 [CBK161615]

Result:
1: 116; 2: 84.5; 3: 84.8; 4: 107

Every entry's value here was drawn from paper PMC12040169.
